- experimentalProtocol: Antiproliferative activity against human Hep3B cells
- Type: functional, cell-based, Hep 3B2
Recorded pIC50, one value per entry.
In simple prose, pIC50 is minus the logarithm base ten of a concentration in moles per litre.

>  <chemicalSmiles>
COc1ccc2nc(-c3ccc4ccccc4c3)[nH]c(=O)c2c1

>  <pIC50>
5.71

$$$$

Consider the additional compound presented here.
Exam item: Using the record for `O=c1[nH]c(-c2ccc3ccccc3c2)nc2ccc(N3CCCC3)cc12` , report its pIC50.
Marked response: 5.87

---

- experimentalProtocol: Inhibition of alpha-glucosidase (unknown origin)
- Set-up: species or system Homo sapiens
pIC50: −log10 of the molar value.
metricName: pIC50

Exam item: What value of pIC50 has been reported for the following molecule? `O=c1c2cc(-c3c(Cl)cccc3Cl)ccc2nc(C2CC2)n1Cc1cccnc1`
Marked response: > 5.00

---

- experimentalProtocol: Protective index, ratio of neurotoxicity in mouse by rotarod test to ED50 for inhibition of maximal electroshock-induced seizures in mouse
- Assay type: toxicity, organism-based
- conditions: in vivo, read-out: PI
metricName: selectivity ratio
Just the number, please, no unit after it.

Exam item: Name the recorded selectivity ratio for `Nc1nnc2c3ccccc3nc(-c3ccccc3Br)n12` .
Marked response: 5.8

---

- Tested on: Bcap37
- experimentalProtocol: Antiproliferative activity against human Bcap37 cells by MTT assay
- Format: functional, cell-based
metricName: pIC50
pIC50 field: float, defined as -log10 of concentration (mol/L).

Exam item: Write down the reported pIC50 of `COc1cc2ncnc(NCCc3ccccc3F)c2c(OC)c1OC` , test system: Bcap37.
Marked response: 5.51
